Molecular target: Rat Liver DHFR (Rattus norvegicus, UniProt Q920D2)
Construct: from tissue; host or cells: rat liver
Sequence (Q920D2 whole entry): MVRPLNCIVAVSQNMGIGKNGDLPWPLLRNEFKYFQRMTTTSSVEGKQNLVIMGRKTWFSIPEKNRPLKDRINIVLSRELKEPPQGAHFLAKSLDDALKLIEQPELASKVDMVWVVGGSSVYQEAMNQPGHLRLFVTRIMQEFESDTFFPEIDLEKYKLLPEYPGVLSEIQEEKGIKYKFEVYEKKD
Test: Inhibition of DHFR enzyme activity
Assay type: biochemical
Details: read-out: IC50(µM) Rat Liver DHFR (P95 limits)
measurement-label: IC50

INPUT: Find the recorded IC50 belonging to `Nc1nnc(-c2cc(Cl)c(N)c(Cl)c2Cl)c(N)n1` and report it.
OUTPUT: > 100 µM

---

System: veratrine-evoked release of glutamate from rat brain slices
Experiment: Inhibition of veratrine-evoked release of glutamate from rat brain slices
Assay type: cell-based
Settings: read-out: IC50(µM) Glutamate Release (P95 limits)
measurement-label: IC50

INPUT: Requested read-out IC50, target or system veratrine-evoked release of glutamate from rat brain slices, entry `Nc1nnc(-c2cc(Cl)c(N)c(Cl)c2Cl)c(N)n1`
OUTPUT: < 10 µM
